Data origin, for the record: patent US20260327314

tested_target: Human CD16A 158V (human)
Sequence (chain, as listed by the source): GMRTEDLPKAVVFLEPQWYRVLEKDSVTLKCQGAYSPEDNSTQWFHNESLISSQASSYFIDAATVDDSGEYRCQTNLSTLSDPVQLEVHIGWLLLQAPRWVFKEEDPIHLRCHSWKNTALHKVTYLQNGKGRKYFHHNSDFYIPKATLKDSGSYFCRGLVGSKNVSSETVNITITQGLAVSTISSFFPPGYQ
method: BLI
test_readout: Kd (nM)

P = CD16-VH-RM73 (antibody) EVQLVESGGGLVQPGGSLRLSCAASGFTFSNYGMSWVRQAPGKGLEWIGSIYYSGTTNYNPSLKSLVTISRDNSKNTLYLQMNSLRAEDTATYYCARESIDYWGQGTLVTVSS
Q = CD16-VH-RM81 (antibody) EVQLVESGGGLVQPGGSLRLSCAASGFTFSNYGMSWVRQAPGKGLEWIGSIYYTGSTNYNPSLKSLVTISRDNSKNTLYLQMNSLRAEDTATYYCARESIDYWGQGTLVTVSS
R = CD16-VH-RM76 (antibody) EVQLVESGGGLVQPGGSLRLSCAASGFTFSNYGMSWVRQAPGKGLEWIGSIYYSGETNYNPSLKSLVTISRDNSKNTLYLQMNSLRAEDTATYYCARESIDYWGQGTLVTVSS
S = CD16-VH-RM77 (antibody) EVQLVESGGGLVQPGGSLRLSCAASGFTFSNYGMSWVRQAPGKGLEWIGSIYYNGSTNYNPSLKSLVTISRDNSKNTLYLQMNSLRAEDTATYYCARESIDYWGQGTLVTVSS
Qu. # sort list by recorded Kd, greatest to least Your task in answering is to list the labels in the requested order.
Ans. R, P, S, Q
